- Test system: MS2 coat protein
- procedure.details: apparent Kd, MS2 coat protein; higher = weaker binding; RNA-MaP array; FMN 200 µM where present
- condition.parameters: designed as: OFF switch for flavin mononucleotide; no ligand
value.type: apparent Kd (nM)
Write the value in nM as a bare number.

Recorded apparent Kd of CCUUUCGGUGUCAGGAUAUACUGCGCCUGGCGCAAGUAGAAGGGACAUGAGGAUCACCCAUGUAGCGGGACCGA , please. 73.7

Recorded apparent Kd of CGCUAGCGAAUAGUAAUAAAAGUACAGGAUAUGUUACAUGAGGAUCACCCAUGUAUUGGGUAAGAACAGAAGGGUACGCUAGCG , please. 136

Recorded apparent Kd of UGUGCUAUGUAGAAGGCAGAUCUGAUUCAGAUCUGAGGAUAUACAUGAGGAUCACCCAUGUUAUGCACCAGCACGAGAGUGCAA , please. 8.13

Recorded apparent Kd of UGACGGAGCUGAGGAUAUAUACAUGAGGAUCACCCAUGUAAGCUCCAGGAAACUGGAGCAAAUGUAUAGAAGGCAGCUCCGUCA , please. 30.3

Recorded apparent Kd of CCUCCGUAUUAGGAUAUCGUCCCGGAAACGGGACGAGAAGGAAUAACAUGAGGAUCACCCAUGUUAACGUGAUG , please. 18.8
